Values from patent US11559590B2

Molecular target: Granzyme B (purified, R&D Systems)
Sequence (P04187 21-247): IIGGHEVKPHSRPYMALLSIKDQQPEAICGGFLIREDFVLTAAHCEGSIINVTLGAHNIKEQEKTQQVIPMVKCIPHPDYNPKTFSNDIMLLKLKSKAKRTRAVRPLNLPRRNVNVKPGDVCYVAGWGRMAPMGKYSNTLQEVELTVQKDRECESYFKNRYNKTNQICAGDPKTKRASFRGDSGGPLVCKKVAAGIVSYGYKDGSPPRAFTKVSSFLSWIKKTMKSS
Assay: in vitro granzyme B enzyme activity inhibition (cleavage of BOC-Ala-Ala-Asp-SBZL, absorbance at 405 nm)
pKi: −log10 of the molar value. Non-standard residues stand in square brackets, D forms with d. *: point of attachment. NOTA = O=C(O)CN1CCN(CC(=O)O)CCN(CC(=O)*)CC1; βAla = NCCC(=O)O
MEASURED PROPERTY: pKi

>>> observed_result("{NOTA}-[βAla]GGIEFD-aldehyde (also: NOTA complexed with nonradioactive gallium) [NOTA-beta-Ala-Gly-Gly-Ile-Glu-Phe-Asp-CHO (nonradioactive gallium-labeled)]")
7.33
